# Assay system: pTyr-containing peptide (pEZ) derived from Ezrin, PPV{pTyr}EPVS
# Protocol description: fluorescence polarization, purified SH2 domain with fluorescein-labelled ezrin phosphopeptide
Property: IC50 (nM)
Output spec: scalar in nM, unitless text.

The examples below pair each entry with its known result.
Binder	IC50, nM
sFes^3, superbinder Fes SH2 domain variant (designed binder) MKIEEHHHHHHSSGKLGLNDIFEAQKIEWHESSGEDLYFQSGTTMDDYKDDDDKGGSEVQKPLHEQLWYHGAIPRAEVAELLVHSGDFLVRESPRIQEYVLSVLWDGLPRHFIIQSLDNLYRLEGEGFPSIPLLIDHLLSTQQPLTKKSGVVLHRAVPSR	14
sFes^6, superbinder Fes SH2 domain variant (designed binder) MKIEEHHHHHHSSGKLGLNDIFEAQKIEWHESSGEDLYFQSGTTMDDYKDDDDKGGSEVQKPLHEQLWYHGAIPRAEVAELLVHSGDFIVRESQTYPGYVLSVLWDGLPRHFIIQSLDNLYRLEGEGFPSIPLLIDHLLSTQQPLTKKSGVVLHRAVPSR	48

Shifting focus to the binder that follows.
The reported value for sFes^2, superbinder Fes SH2 domain variant (designed binder) MKIEEHHHHHHSSGKLGLNDIFEAQKIEWHESSGEDLYFQSGTTMDDYKDDDDKGGSEVQKPLHEQLWYHGAIPRAEVAELLVHSGDFLVRERQRKQEYVLSVLWDGLPRHFIIQSLDNLYRLEGEGFPSIPLLIDHLLSTQQPLTKKSGVVLHRAVPSR in terms of IC50 is 3.9
